Molecular target: Sigma intracellular receptor 2 (Homo sapiens)
Sequence (Q5BJF2 whole entry): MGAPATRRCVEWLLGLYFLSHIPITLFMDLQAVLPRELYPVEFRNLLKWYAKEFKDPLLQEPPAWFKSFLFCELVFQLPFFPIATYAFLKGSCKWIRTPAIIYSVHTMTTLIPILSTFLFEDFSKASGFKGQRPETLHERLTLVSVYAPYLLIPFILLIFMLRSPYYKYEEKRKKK
Assay: Displacement of [3H](+)-ditolylguanidine from human sigma 2 receptor/TMEM97 transfected in human HEK293T cells assessed as inhibition constant in presence of (+)-pentazocine by radioligand competition binding assay
Type: cell-based
Settings: read-out: Ki
ASSAY_READOUT: Ki (nM)

[
  {
    "MOLECULE": "CCCN1CCN(c2cccc(C3CCCCN3C(=O)OCc3ccccc3)c2)CC1 (centres undefined)",
    "UNIT_OF_MEASUREMENT": "nM",
    "Ki": 14
  }
]

a = O=C(OCc1ccccc1)N1CCOCC1c1cccc(N2CCN(C3CCCC3)CC2)c1 (centres undefined)
b = CCCN1CCN(c2ccc(C3CCCCN3C(=O)OCc3ccccc3)cc2)CC1 (centres undefined)
c = CCCN1CCN(c2cccc(C3CCCCN3C(=O)OCc3cc(Cl)cc(Cl)c3)c2)CC1 (centres undefined)
[in] Ranking field: Ki; order: falling. The reply should contain the labels ordered as requested.
[out] c, a, b
(c: 75 nM, a: 32 nM, b: 14 nM)

###

Target: Sigma non-opioid intracellular receptor 1 (Homo sapiens)
Sequence (Q99720 whole entry): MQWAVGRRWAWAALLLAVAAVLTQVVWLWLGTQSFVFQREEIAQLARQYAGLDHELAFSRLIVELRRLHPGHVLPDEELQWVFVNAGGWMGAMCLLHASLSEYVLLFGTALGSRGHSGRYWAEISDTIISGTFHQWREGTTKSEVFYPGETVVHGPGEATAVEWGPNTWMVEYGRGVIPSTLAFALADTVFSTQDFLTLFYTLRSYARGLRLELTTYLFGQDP
Experiment: Displacement of [3H](+)-pentazocine from human sigma 1 receptor transfected in human HEK293T cells assessed as inhibition constant by radioligand competition binding assay
Format: cell-based
Settings: read-out: Ki
pKi: −log10 of the molar value.
ASSAY_READOUT: pKi

[
  {
    "COMPOUND": "CCCN1CCN(c2cccc(C3CCCCN3C(=O)OCc3ccccc3)c2)CC1 (stereo not given)",
    "STUDY_SYSTEM": "Sigma non-opioid intracellular receptor 1 (Homo sapiens)",
    "pKi": 8.42
  },
  {
    "COMPOUND": "CCOC(=O)CCN1CCN(c2cccc(C3CCCCN3C(=O)OCc3ccccc3)c2)CC1 (stereo not given)",
    "STUDY_SYSTEM": "Sigma non-opioid intracellular receptor 1 (Homo sapiens)",
    "pKi": 6.98
  },
  {
    "COMPOUND": "O=C(OCc1ccccc1)N1CCOCC1c1cccc(N2CCN(C3CCCC3)CC2)c1 (stereo not given)",
    "STUDY_SYSTEM": "Sigma non-opioid intracellular receptor 1 (Homo sapiens)",
    "pKi": 7.82
  },
  {
    "COMPOUND": "CCCN1CCN(c2ccc(C3CCCCN3C(=O)OCc3ccccc3)cc2)CC1 (stereo not given)",
    "STUDY_SYSTEM": "Sigma non-opioid intracellular receptor 1 (Homo sapiens)",
    "pKi": 8.17
  },
  {
    "COMPOUND": "CCCN1CCN(c2cccc(C3CN(C)CCN3C(=O)OCc3ccccc3)c2)CC1 (stereo not given)",
    "STUDY_SYSTEM": "Sigma non-opioid intracellular receptor 1 (Homo sapiens)",
    "pKi": 6.80
  },
  {
    "COMPOUND": "CN1CCN(C(=O)OCc2ccccc2)C(c2cccc(N3CCN(C4CCCC4)CC3)c2)C1 (stereo not given)",
    "STUDY_SYSTEM": "Sigma non-opioid intracellular receptor 1 (Homo sapiens)",
    "pKi": 7.96
  }
]

P = O=C(OCc1ccccc1)N1CCOCC1c1cccc(N2CCN(CCCO)CC2)c1 (stereo not given)
Q = O=C(OCc1ccccc1)N1CCCCC1c1cccc(N2CCN(C3CCCC3)CC2)c1 (stereo not given)
R = CCCN1CCN(c2cccc(C3COCCN3C(=O)OCc3ccccc3)c2)CC1 (stereo not given)
S = CN1CCN(C(=O)OCc2ccccc2)C(c2cccc(N3CCN(CCCO)CC3)c2)C1 (stereo not given)
[in] Ordering criterion: pKi; begin with the maximum. Answer format: the labels, ordered as requested.
[out] Q, R, P, S
(Q: 8.10, R: 7.30, P: 6.61, S: 6.22)
